- procedure.text: Half life period was determined
- Type: ADME, organism-based
- conditions.used: rat, in vivo
assay.readout: half-life (h)
Report the value in h with no unit label.

Prompt line: For the compound shown here, "CCOCn1nnc(-c2ccc(F)cc2)c1-c1ccnc(Oc2cccc(NC(C)=O)c2)n1" , give the reported half-life.
Response line: 2.2

###

- Tested on: THP-1
- procedure.text: Inhibitory activity against TNF-alpha production using lipopolysaccharide stimulated human monocytic cells
- Assay type: functional, cell-based
- conditions.used: thp-1
assay.readout: IC50 (nM)
Report the value in nM with no unit label.

Prompt line: For the compound shown here, "CCOCn1nc(-c2ccncc2)c(-c2ccc(F)cc2)n1" , give the reported IC50.
Response line: 490

###

- procedure.text: Oral bioavailability in the rat was determined
- Type: ADME, organism-based
- conditions.used: in vivo
assay.readout: bioavailability (%)
Report the value in % with no unit label.

Prompt line: For the compound shown here, "CCOCn1nnc(-c2ccc(F)cc2)c1-c1ccnc(Oc2cccc(NC(C)=O)c2)n1" , give the reported bioavailability.
Response line: 56
